// provenance: paper PMC3103431

# experimental.target: T1, MBNL1 (2-260) (Homo sapiens, UniProt Q9NR56 2-260)
# T1 sequence: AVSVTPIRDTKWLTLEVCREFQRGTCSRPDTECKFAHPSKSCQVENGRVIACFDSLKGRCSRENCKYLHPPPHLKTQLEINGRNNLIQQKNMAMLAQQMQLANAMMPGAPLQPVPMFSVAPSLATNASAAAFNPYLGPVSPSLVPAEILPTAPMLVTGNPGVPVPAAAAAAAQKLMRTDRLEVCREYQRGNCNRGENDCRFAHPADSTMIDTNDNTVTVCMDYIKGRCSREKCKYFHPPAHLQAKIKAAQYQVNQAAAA
# test: EMSA; 5 mM Mg2+; smearing; 100 mM NaCl, 21 mM Tris pH 7.5, 5 mM MgCl2, 0.1 mM EDTA, 2 mg/mL BSA, 0.1 mg/mL heparin, 0.5 mM BME, 5 mM DTT, 0.02% Triton X-100, 10% glycerol, 0.02 nM RNA, room temperature 30 min
# details: protein: recombinant; tags: GST tag removed; label: 5' 32P; single-stranded
pKd: −log10 of the molar value.
endpoint.label: pKd

1. UUUGCUUUUUUUUUUUUUUUUUU (ssRNA) [1GC]: 7.35
